experiment description: Inhibition of NF-kappaB-mediated transcriptional activation in human A549 cells
Assay type: cell-based
pIC50: −log10 of the molar value.

- compound: "COc1cccc(Nc2nccc(C3=CNN4C=CC=CC34)n2)c1 (stereo not drawn)"
  pIC50: 6.00
- compound: "COCCn1cc(-c2ccnc(Nc3cccc(OC)c3)n2)c2cccnc21"
  pIC50: 5.85
- compound: "COCCn1cc(-c2ccnc(Nc3ccccc3)n2)c2cccnc21"
  pIC50: 5.25
- compound: "COCCn1cc(-c2ccnc(Nc3ccccc3)n2)c2ccccc21"
  pIC50: 4.98
- compound: "C1=CC2C(c3ccnc(Nc4ccccc4)n3)=C(c3ccccc3)NN2C=C1 (stereo not drawn)"
  pIC50: 5.77
- compound: "O=C(Nc1n[nH]c2nc(N3CCN(S(=O)(=O)c4ccccc4C(F)(F)F)CC3)c(F)cc12)C1CC1"
  pIC50: 5.03
- compound: "O=C(Nc1n[nH]c2nc(N3CCN(C(=O)c4ccc(F)cc4F)CC3)c(F)cc12)C1CC1"
  pIC50: 4.71
- compound: "COc1ccccc1C(=O)N1CCN(c2nc3[nH]nc(NC(=O)C4CC4)c3cc2F)CC1"
  pIC50: 4.88
- compound: "COc1cccc(Nc2nccc(C3=C(c4ccccc4)NN4C=CC=CC34)n2)c1 (stereo not drawn)"
  pIC50: 5.72
- compound: "COCCn1cc(-c2ccnc(Nc3cccc(OC)c3)n2)c2ccccc21"
  pIC50: 5.11
- compound: "COc1ccccc1N1CCN(c2nc3[nH]nc(NC(=O)C4CC4)c3cc2F)CC1"
  pIC50: 4.96
- compound: "C1=CC2C(c3ccnc(Nc4ccccc4)n3)=CNN2C=C1 (stereo not drawn)"
  pIC50: 6.22
- compound: "Cc1ccc(Cl)cc1Nc1nccc(C2=CNN3C=CC=CC23)n1 (stereo not drawn)"
  pIC50: 5.37

====

Test system: THP-1
experiment description: Inhibition of LPS-induced TNFalpha production in human THP1 cells
Assay type: functional, cell-based
experimental endpoint: IC50 (nM)

- compound: "C1=CC2C(c3ccnc(Nc4ccccc4)n3)=CNN2C=C1 (configuration not stated)"
  u: "nM"
  reported result: 140
- compound: "COCCn1cc(-c2ccnc(Nc3cccc(OC)c3)n2)c2cccnc21"
  u: "nM"
  reported result: 990

====

target system: Glycogen synthase kinase-3 beta (Homo sapiens, UniProt P49841)
experiment description: Inhibition of GSK3-beta
Calls of active or inactive are those of the source. No cut-off for these calls is given here.

- smiles data: "O=C(Nc1n[nH]c2nc(N3CCN(C(=O)c4ccc(F)cc4F)CC3)c(F)cc12)C1CC1"
  target system: "Glycogen synthase kinase-3 beta (Homo sapiens, UniProt P49841)"
  Activity: "inactive"
- smiles data: "COc1ccccc1N1CCN(c2nc3[nH]nc(NC(=O)C4CC4)c3cc2F)CC1"
  target system: "Glycogen synthase kinase-3 beta (Homo sapiens, UniProt P49841)"
  Activity: "inactive"
- smiles data: "O=C(Nc1n[nH]c2nc(N3CCN(S(=O)(=O)c4ccccc4C(F)(F)F)CC3)c(F)cc12)C1CC1"
  target system: "Glycogen synthase kinase-3 beta (Homo sapiens, UniProt P49841)"
  Activity: "inactive"
- smiles data: "O=C(Nc1n[nH]c2nc(N3CCNCC3)c(F)cc12)C1CC1"
  target system: "Glycogen synthase kinase-3 beta (Homo sapiens, UniProt P49841)"
  Activity: "inactive"
- smiles data: "COc1ccccc1C(=O)N1CCN(c2nc3[nH]nc(NC(=O)C4CC4)c3cc2F)CC1"
  target system: "Glycogen synthase kinase-3 beta (Homo sapiens, UniProt P49841)"
  Activity: "inactive"

====

target system: Glycogen synthase kinase-3 beta (Homo sapiens)
pIC50: −log10 of the molar value.
Decide using pIC50: a value greater than or equal to 7 is yes, a smaller one is no.

- compound: "C1=CC2C(c3ccnc(Nc4ccccc4)n3)=C(c3ccccc3)NN2C=C1 (stereo unspecified)"
  qualitative label: "yes"
- compound: "COCCn1cc(-c2ccnc(Nc3ccccc3)n2)c2ccccc21"
  qualitative label: "no"
- compound: "Cc1ccc(Cl)cc1Nc1nccc(C2=CNN3C=CC=CC23)n1 (stereo unspecified)"
  qualitative label: "no"
- compound: "COc1cccc(Nc2nccc(C3=C(c4ccccc4)NN4C=CC=CC34)n2)c1 (stereo unspecified)"
  qualitative label: "yes"
